System: CAKI-1 renal
Experiment: NCI tumour cell line growth inhibition, 48 h
I'd be grateful if you could share measured TGI for these entries.

Past entries and their recorded results:
molecule | TGI
C=C1C(=O)O[C@H]2[C@H]1CC/C(COC(=O)/C=C\C(=O)NCc1ccc(Cn3c(=O)sn(CCI)c3=O)cc1)=C\CC[C@@]1(C)O[C@@H]21 | 3.03 µM
Cc1c2ccncc2c(C)c2c1[nH]c1ccc(Oc3ccccc3)cc12 | > 100 µM
Cc1ccc(S(=O)(=O)N/N=C2\CCC3(O)CC2(C)CCC2C3CC2(C)C)cc1 (centres undefined) | > 100 µM
COc1ccc(CNc2nc(NCc3ccc(OC)cc3)nc(NC3CCCC3)n2)cc1 | > 84.1 µM
CC1C[C@]2(C[C@@H](C)C(=O)O2)OC2CC3(C)C4CCC5C(C)(C)OC(=O)CC[C@@]56C[C@@]46CC[C@]3(C)C12 (some centres undefined) | > 100 µM
CNC(=O)c1c(F)cccc1Nc1nc(Nc2cc3c(cc2OC)CCN3C(=O)CN(C)C)nc2[nH]ccc12 | 45.7 µM
c1ccc(Oc2ccc(Nc3ncc(-c4ccccc4)o3)cc2)cc1 | > 25 µM
CCCCCCCCCCCCN=C(N)c1ccc(N2CCN(c3ccc(C(N)=NCCCCCCCCCCCC)cc3)CC2)cc1 | > 50 µM

Now look at this entry.
Exercise: Field request: TGI | item: CC(=O)Nc1ccc(S(=O)(=O)N=S(C)C)cc1
Key: > 100 µM

###

Test system: UACC-62 melanoma
Test: NCI tumour cell line growth inhibition, 48 h; in the data active means GI50 below about 0.43 µM; inactive means the rest
Choose one outcome from this list and give only that: active, inactive

A selection of reference data follows.
compound | label
C#C[C@@]1(O)[C@@H](CO)O[C@@H](n2cc(C(F)(F)F)c3c(N)ncnc32)[C@@H]1O | inactive
N=C(N)c1ccc(-c2ccc(-c3ccc4ccccc4c3)s2)s1 | inactive
COCCc1n(Cc2ccc3ccccc3c2)c2ccccc2[n+]1Cc1ccc2ccccc2c1 | active
COc1ccc(-c2cn(-c3ccc(OC)c(OC)c3)c(=O)[nH]2)cc1 | inactive
C/C=C/C(=O)[O-].C/C=C/C(=O)[O-].N.N.N.N.[Co+3].[O-][Cl+3]([O-])([O-])[O-] | inactive
O=C(Nc1cc(Cl)cc(Cl)c1)c1cccc(NC2=C(Cl)C(=O)N(Cc3ccccc3)C2=O)c1 | inactive

Exercise: How did this test come out for CCCCCCCCCCNCCSS(=O)(=O)O ?
Key: inactive

Exercise: Entry to check: COc1ccccc1[As]=[As]c1ccccc1OC (configuration not stated)
Key: active

Exercise: Entry to check: O=C(NCCOCCOCCOCCNC(=O)c1cc2c(o1)C(=O)c1ccccc1C2=O)NC12CC3CC(CC(C3)C1)C2
Key: inactive

Exercise: Entry to check: Cn1cc(C2=C(c3cn(CCCN)c4ccccc34)C(=O)NC2=O)c2ccccc21
Key: inactive

Exercise: Entry to check: CC(=O)/C(Br)=C/c1ccc(Br)o1
Key: inactive

Exercise: Entry to check: CS(=O)(=O)c1cccc(Nc2ncc3cc(-c4ccccc4Cl)ccc3n2)c1
Key: inactive

###

I'd be grateful if you could share measured TGI for these entries.
Test system: MOLT-4 leukemia
Assay: NCI tumour cell line growth inhibition, 48 h
Where a SMILES comes first, the peptide text is derived from it. The star is where a group is joined. Cbz = O=C(OCc1ccccc1)*; Bn = c1ccc(C*)cc1

Past entries and their recorded results:
compound | TGI
O=C(O)CCCNc1ncc2c(n1)-c1ccccc1OC2 | > 100 µM
ClCC[N-]CC[N-]CCCl.ClCC[N-]CC[N-]CCCl.[O-][Cl+3]([O-])([O-])O.[Zn+2] | > 100 µM
CCOC(=O)/C(C(=S)NCc1ccccc1)=C(/N)N1CCCC1 | > 100 µM
CCN(CC)CCN1c2nc3ccccc3cc2Sc2cc3ccccc3nc21 | 6.6 µM
CCOC(=O)C1C(c2ccc(OC)cc2)c2c([nH][nH]c2=O)CC1(C)O (stereo not given) | > 100 µM

Dear reader, for each entry below, please note its TGI.
1. Nc1nc(Cl)c2ncn(Cc3cccc(CCl)c3)c2n1
2. O=C(Nc1cc(Cl)ccc1O)c1cccc(Nc2ccnc(C(F)(F)F)c2)c1
3. COC(=O)C(Cc1ccc(O)cc1)NC(=O)C(COCc1ccccc1)NC(=O)OCc1ccccc1 (stereo not given) (Cbz-Ser(Bn)-Tyr-OMe; configuration not given here)
4. COC(=O)CN1C(=O)C2(C(=O)OC)OC1(c1ccc([N+](=O)[O-])cc1)C1C(=O)N(c3ccccc3)C(=O)C12 (stereo not given)
5. CCN(CC)C(=S)SCC(=O)Nc1nc2c(s1)CCCC2

Key:
1. > 30.8 µM
2. 4.73 µM
3. > 100 µM
4. > 100 µM
5. > 100 µM

###

Test system: M14 melanoma
Assay: NCI tumour cell line growth inhibition, 48 h
I'd be grateful if you could share measured TGI for these entries.
Give bare numbers, in µM.

Past entries and their recorded results:
compound | quantity-unit | TGI
Cc1ccc(N=C2N=C(N3CC(C)OC(C)C3)c3ccccc32)cc1 (stereo not drawn) | µM | 56.5
CCS(=O)c1c2cc(OC)ccc2nc2ccc(OC)cc12 (stereo not drawn) | µM | 37.6
COc1ccc(-c2oc3cc(OC(C)=O)cc(OC(C)=O)c3c(=O)c2OC)cc1 | µM | 30.6
COc1ccc2c(c1)/C(=C\c1c(-c3cc(OC)ccc3OC)nc3sccn13)C(=O)N2 | µM | 3.09
C[n+]1c2ccccc2c(CNCC(=O)O)c2ccccc21 | µM | 18.4

Dear reader, for each entry below, please note its TGI.
1. CC(C)COC1Sc2ccccc2S1
2. C[P+](c1ccccc1)(c1ccc(Cl)cc1)c1ccc(Cl)cc1
3. O=C1C=C(OCC=C(C(F)(F)F)C(F)(F)F)c2ccccc2C1=O
4. COC(=O)c1c(O)ccc2c1c1c(n2Cc2ccccc2OC)C(=O)c2ccccc2C1=O
5. CC/C(Cl)=N\OC(=O)Nc1ccc(OC)c(C)c1
6. CC(=O)Oc1c2ccsc2c(OC(C)=O)c2ccsc12
7. Oc1ccc(C(O)(c2ccccc2)c2ccccc2)c2ccccc12
8. Clc1ccc2c(c1)N(C1CCCN(Cc3ccccc3)C1)c1ccccc1S2 (stereo not drawn)

Key:
[52.4, 34.4, 3.87, 22.6, 44.1, 0.94, 10.7, 4.41]

Dear reader, for each entry below, please note its TGI.
1. COc1ccc(-c2csc(Cc3nc4c(Br)cc(Br)cc4c(=O)n3-c3ccc(OC)cc3)n2)cc1
2. CCN(CC)c1ccc(-c2cc(-c3cc(OC)c(OC)c(OC)c3)nc(N3CCC(O)CC3)c2C#N)cc1
3. CC(NC1=CC(=O)c2cccnc2C1=O)C(O)c1ccccc1 (stereo not drawn)

Key:
63.1
0.799
3.12

###

I'd be grateful if you could share measured TGI for these entries.
Test system: 786-0 renal
Experiment: NCI tumour cell line growth inhibition, 48 h

compound | TGI
c1ccc2c(c1)Cc1c(Cc3csc4ccccc34)ccc3cccc-2c13 | > 100 µM
Oc1ccc(C(O)(c2ccccc2)c2ccccc2)c2ccccc12 | 6.61 µM
COC(=O)c1c(-c2cc(OC)c(OC)c(OC)c2)oc2ccccc2c1=O | > 100 µM
COc1cc2c3c(n(CCCNCCCNCCN)c(=O)c2cc1OC)-c1cc2c(cc1C3=O)OCO2 | 82 µM

Dear reader, for each entry below, please note its TGI.
1. CCC/C(Cl)=N/OC(NC(=O)OCC)(C(F)(F)F)C(F)(F)F
2. COc1ccc(CCNC(=O)c2ccccc2C2c3ccc(OCc4ccccc4)cc3Oc3cc(OCc4ccccc4)ccc32)cc1OC

Key:
["31.2 µM", "> 100 µM"]

###

Tested on: IGROV1 ovarian
Assay: NCI tumour cell line growth inhibition, 48 h
I'd be grateful if you could share measured TGI for these entries.

molecule | TGI
O=C(N=c1nc(NC(=O)c2ccccc2)ss1)c1ccccc1 | > 100 µM
COc1ccc(C(=O)c2cc3c(N)c(C(=O)Nc4cccc(Br)c4C)sc3nc2C)cc1 | > 100 µM

Dear reader, for each entry below, please note its TGI.
1. Cc1c2ccncc2c(C)c2c1sc1ccccc12
2. COC(=O)c1c(-c2cc(OC)c(OC)c(OC)c2)oc2ccccc2c1=O
3. O=[N+]([O-])c1cc(-[n+]2cc([O-])on2)ccc1Cl
4. COc1ccc(CCNC(=O)c2ccccc2C2c3ccc(OCc4ccccc4)cc3Oc3cc(OCc4ccccc4)ccc32)cc1OC
5. CCOC(=O)c1c(C)nc2c(c1N)/C(=C/c1ccccn1)C(=O)N2Cc1ccccc1
6. CC1=NN2C(c3ccc([N+](=O)[O-])cc3)=CSC2=NC(C)(C)C1
7. CC(=O)C1C(=O)C(=O)N(c2ccc([N+](=O)[O-])cc2)C1=O (stereo not given)
8. COc1ccc(O)cc1C(O)c1ccccc1 (stereo not given)

Key:
21.6 µM
> 100 µM
64.5 µM
> 100 µM
3.47 µM
> 100 µM
> 100 µM
> 100 µM
